tested on: Phakopsora pachyrhizi (F129L); assay: Protective control of soybean rust on soybeans (PHAKPA P2); format: in vivo; conditions: protective P2, 16 ppm, soybean rust F129L isolate
For each record, write down the corresponding % PHAKPA (F129L) Disease level P2 at 16 ppm.
Answers are plain numbers, in %.

Some molecules with known % PHAKPA (F129L) Disease level P2 at 16 ppm results, for comparison:
CO/N=C(/C(=O)OC)c1cccc(C)c1CO/N=C(\C)c1cccc(F)c1C(F)(F)F 24
C#Cc1cc(F)c(F)c(/C(C)=N/OCc2c(C)cccc2/C(=N\OC)C(=O)NC)c1 0

Hi, could you look up % PHAKPA (F129L) Disease level P2 at 16 ppm for each item in my list?
1. CO/N=C(/C(=O)OC)c1cccc(C)c1CO/N=C(\C)c1ccc(OC(F)(F)F)cc1F
2. CNC(=O)/C(=N/OC)c1cccc(C)c1CO/N=C(\C)c1cccc(C2CC2)c1
3. C#Cc1cc(F)c(F)c(/C(C)=N/OCc2c(C)cccc2/C(=N\OC)C(=O)OC)c1

1: 0; 2: 13; 3: 10

Source of measurements: patent US20230172206A1
